B1: PPFIA4 (parent)
chain: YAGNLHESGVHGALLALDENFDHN

- Variants of: B1
- TEST DESCRIPTION: protein stability index of a GFP-peptide fusion (GPS, HEK-293T) (PSI 1-6); higher = more stable;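 also: lentivirally expressed fusions sorted by FACS into six bins by GFP to DsRed ratio, PSI derived from sequencing read proportions per bin multiplied by bin number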
- CONDITION SET: c terminus: a fixed tail appended
Recorded protein stability index, one value per entry.
The reply should be a number, written without any unit.

Study these solved cases before continuing.
D22E :: 2.48
G12V :: 1.95
N4D :: 3.55
A16M :: 2.43
N24F :: 2.01
A16I :: 1.97
D22L :: 1.46
D22Q :: 2.2

Pending variant:
Query: Returns the measured protein stability index for the input variant. Input: G12Q
Result: 3.56
